Would you mind telling me the reported pIC50 of each entry?
- assayedSystem: BTK (Homo sapiens (Human))
- assayInfo: In Vitro PD Assay in Human Whole Blood (pBTK assay)
- Assay type: cell-based
- particulars: human heparinized whole blood, 37° C. for 30 min, total BTK capture and phosphotyrosine detection (ECL)
pIC50: −log10 of the molar value.

I am curious: what pIC50 value has been reported for `Cc1cc(-c2ncnc(Nc3cnn(C)c3)n2)c(F)cc1CNC(=O)c1cn(C(C)(C)C)nn1` ?
5.00 to 6.30

Query (molecule): `Cc1c(-c2ncnc(Nc3ccn(C)n3)n2)ccc([C@@H](C)NC(=O)c2noc(C(C)(C)C)n2)c1Cl` ; field requested: pIC50
5.00 to 6.30

Give the measured pIC50 of `Cc1c(CNC(=O)c2nn(C(C)(C)C)cc2F)ccc(-c2ncnc(Nc3cnn(C)c3)n2)c1F` .
6.30 to 7.00

Can you share its pIC50? I mean this molecule: `Cn1cc(Nc2ncnc(-c3ccc4c(c3)CCCC[C@H]4NC(=O)c3cnc(C(C)(C)C)o3)n2)cn1`
6.30 to 7.00

###

- assayedSystem: BTK (Homo sapiens (Human), UniProt Q06187)
- Sequence (Q06187 whole entry): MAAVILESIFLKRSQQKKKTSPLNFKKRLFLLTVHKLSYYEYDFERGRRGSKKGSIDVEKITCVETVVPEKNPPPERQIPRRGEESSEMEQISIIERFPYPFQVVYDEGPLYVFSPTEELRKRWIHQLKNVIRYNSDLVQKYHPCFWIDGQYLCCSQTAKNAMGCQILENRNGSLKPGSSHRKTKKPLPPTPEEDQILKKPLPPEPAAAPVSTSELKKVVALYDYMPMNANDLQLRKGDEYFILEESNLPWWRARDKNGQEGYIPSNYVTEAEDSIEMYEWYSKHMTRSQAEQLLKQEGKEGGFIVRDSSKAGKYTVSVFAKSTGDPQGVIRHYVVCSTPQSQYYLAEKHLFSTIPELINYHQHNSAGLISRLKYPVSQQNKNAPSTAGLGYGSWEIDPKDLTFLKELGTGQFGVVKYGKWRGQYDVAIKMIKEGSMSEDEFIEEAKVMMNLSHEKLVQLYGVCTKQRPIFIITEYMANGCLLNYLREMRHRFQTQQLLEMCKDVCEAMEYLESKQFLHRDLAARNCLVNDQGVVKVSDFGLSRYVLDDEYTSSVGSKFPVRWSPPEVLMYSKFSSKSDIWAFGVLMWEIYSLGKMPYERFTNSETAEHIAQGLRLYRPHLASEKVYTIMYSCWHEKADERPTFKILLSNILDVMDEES
- assayInfo: In Vitro PD Assay in Human Whole Blood (pBTK assay)
- Assay type: cell-based
- particulars: human heparinized whole blood, 37° C. for 30 min, total BTK capture and phosphotyrosine detection (ECL)
- Procedure: In Vitro PD Assay in Human Whole Blood Human heparinized venous blood was purchased from Bioreclamation, Inc. or SeraCare Life Sciences and shipped overnight. Whole blood was aliquoted into 96-well plate and “spiked” with serial dilutions of test compound in DMSO or with DMSO without drug. The final concentration of DMSO in all wells was 0.1%. The plate was incubated at 37° C. for 30 min. […]
Please respond with reported IC50 for every item in the list.

Which value of IC50 has been reported for `Cc1c(CNC(=O)c2noc(C(C)(C)C)n2)ccc(-c2ncnc(Nc3ccn(C)n3)n2)c1F` in the records?
100 to 500 nM

I'd like to know its IC50. The compound in question is `Cn1ccc(Nc2ncnc(-c3cc4c(cc3F)[C@H](NC(=O)c3nc(C(C)(C)C)no3)CCCC4)n2)n1`
< 100 nM

Fill in: IC50 of `Cn1cc(Nc2ncnc(-c3ccc4c(c3)CCCC[C@H]4NC(=O)c3nc(C(C)(C)C)no3)n2)cn1` is ___
< 100 nM

Query (compound): `Cc1cc(-c2ncnc(Nc3cnn(C)c3)n2)ccc1CNC(=O)c1noc(C(C)(C)C)n1` ; field requested: IC50
100 to 500 nM

Field request: IC50 | item: `Cc1c([C@@H](C)NC(=O)c2noc(C(C)(C)C)n2)ccc(-c2ncnc(Nc3cnn(C)c3)n2)c1F`
< 100 nM

Can you share its IC50? I mean this compound: `Cc1c(CNC(=O)c2ccn(C(C)(C)C)n2)ccc(-c2ncnc(Nc3cnn(C)c3)n2)c1F`
500 to 10000 nM

Form field: reported IC50 of `Cc1c(CNC(=O)c2ncc(C(C)(C)C)o2)ccc(-c2ncnc(Nc3cnn(C)c3)n2)c1F`
500 to 10000 nM

###

- assayedSystem: BTK (Homo sapiens (Human))
- assayInfo: In Vitro PD Assay in Human Whole Blood (pBTK assay)
- Format: cell-based
- particulars: human heparinized whole blood, 37° C. for 30 min, total BTK capture and phosphotyrosine detection (ECL)
So I've got a bunch of compounds here, and I need their IC50 values.

Request the reported IC50 associated with `Cn1cc(Nc2ncnc(-c3ccc(CNC(=O)c4coc(C(C)(C)C)n4)c(Cl)c3F)n2)cn1`
100 to 500 nM

Reported IC50, compound `Cc1cc(-c2ncnc(Nc3cnn(C)c3)n2)ccc1CNC(=O)c1nc(C2(CF)CC2)no1` : ____
100 to 500 nM

For the compound `Cc1cc(-c2ncnc(Nc3cnn(C)c3)n2)c(F)cc1CNC(=O)c1coc(C(C)(C)C)n1` , what IC50 is on record?
500 to 10000 nM

For the compound `Cn1cc(Nc2ncnc(-c3ccc4c(c3)CN(CC(F)(F)F)CC[C@H]4NC(=O)c3nc(C(C)(C)C)co3)n2)cn1` , what IC50 is on record?
< 100 nM

Fill in: IC50 of `Cc1c(CNC(=O)c2nc(C3(CF)CC3)no2)ccc(-c2ncnc(Nc3ccn(C)n3)n2)c1F` is ___
500 to 10000 nM

Request the reported IC50 associated with `Cc1c(CNC(=O)c2noc(C3(CF)CC3)n2)ccc(-c2ncnc(Nc3cnn(C)c3)n2)c1F`
< 100 nM

What value of measured IC50 is listed for `Cc1cc(-c2ncnc(Nc3ccn(C)n3)n2)ccc1CNC(=O)c1nn(C(C)(C)C)cc1F` ?
> 10000 nM

Would you kindly share the measured IC50 for `Cn1ccc(Nc2ncnc(-c3ccc(CNC(=O)c4nc(C(C)(C)C)no4)c(C4CC4)c3F)n2)n1` ?
500 to 10000 nM

Give its IC50 value. Item: `Cc1c(-c2ncnc(Nc3cnn(C)c3)n2)ccc([C@@H](C)NC(=O)c2nc(C(C)(C)C)no2)c1Cl`
100 to 500 nM

So what's the measured IC50 for this one? `Cc1cc(-c2ncnc(Nc3cnn(C)c3)n2)ccc1CNC(=O)c1cnc(C(C)(C)C)o1`
500 to 10000 nM

Which IC50 is listed for `Cc1cc(-c2ncnc(Nc3cnn(C)c3)n2)c(F)cc1CNC(=O)c1noc(C2(C)CC2)n1` ?
100 to 500 nM

# query: IC50 of entry `Cn1ccc(Nc2ncnc(-c3ccc4c(c3)CN(CC(F)(F)F)CC[C@H]4NC(=O)c3noc(C(C)(C)C)n3)n2)n1`
< 100 nM

What IC50 value was documented for this compound, `Cc1cc(-c2ncnc(Nc3cnn(C)c3)n2)ccc1CNC(=O)c1noc(C2(CF)CC2)n1` ?
100 to 500 nM

What IC50 value was documented for this compound, `Cn1ccc(Nc2ncnc(-c3ccc(CNC(=O)c4nc(C(C)(C)C)no4)c(C(F)F)c3F)n2)n1` ?
500 to 10000 nM

Dear colleague, I am looking for the recorded IC50 of the following compound: `Cc1cc(-c2ncnc(Nc3ccn(C)n3)n2)ccc1CNC(=O)c1cnc(C(C)(C)C)o1`
500 to 10000 nM

Entry source: patent US10899753B2
